assay-system: CYP11B1 (Homo sapiens, UniProt P15538)
Construct: the NCI-H295R cells have CYP11 B1 (steroid 11 β-hydroxylase)
method-notes: cellular cortisol production in NCI-H295R cells (CYP11B1 inhibition)
experimental-readout: IC50 (nM)

Illustrative cases are given below, each with its answer.
> print(dat)
                                smiles.text  recorded.number
1  N#Cc1ccc([C@H]2C[C@](O)(C#CC3CC3)c3cncn32)c(F)c1              273
2  CC1(C)[C@H](c2ccc(C#N)cc2F)n2cncc2[C@@]1(O)c1ccc(F)cc1              220
3  N#Cc1ccc([C@H]2C[C@@](O)(c3ccc4ccccc4c3)c3cncn32)c(F)c1               14
4  CCc1ccc([C@@]2(O)C[C@H](c3ccc(C#N)cc3F)n3cncc32)cc1              645

[A] N#Cc1ccc([C@H]2C[C@](O)(c3cccc(-c4ccc(F)cc4)c3)c3cncn32)c(F)c1
[B] Cc1cc(-c2ccc([C@@]3(O)C[C@H](c4ccc(C#N)cc4F)n4cncc43)cc2)ccn1
Input line: Response body: label of entry with the larger IC50; valid values A , B . Your answer should be the label attached to the chosen record.
Output line: B
(B: 10200 nM, A: 522 nM)

[I] Cn1c([C@@]2(O)C[C@H](c3ccc(C#N)cc3F)n3cncc32)cc2ccccc21
[II] C=C[C@@]1(O)C[C@H](c2ccc(C#N)cc2F)n2cncc21
Input line: I would appreciate it if you could say which entry, I or II , has the lower IC50 value. Your answer should be the label attached to the chosen record.
Output line: II

###

assay-system: aldosterone synthase (CYP11B2) (Homo sapiens)
Sequence (P19099 25-503): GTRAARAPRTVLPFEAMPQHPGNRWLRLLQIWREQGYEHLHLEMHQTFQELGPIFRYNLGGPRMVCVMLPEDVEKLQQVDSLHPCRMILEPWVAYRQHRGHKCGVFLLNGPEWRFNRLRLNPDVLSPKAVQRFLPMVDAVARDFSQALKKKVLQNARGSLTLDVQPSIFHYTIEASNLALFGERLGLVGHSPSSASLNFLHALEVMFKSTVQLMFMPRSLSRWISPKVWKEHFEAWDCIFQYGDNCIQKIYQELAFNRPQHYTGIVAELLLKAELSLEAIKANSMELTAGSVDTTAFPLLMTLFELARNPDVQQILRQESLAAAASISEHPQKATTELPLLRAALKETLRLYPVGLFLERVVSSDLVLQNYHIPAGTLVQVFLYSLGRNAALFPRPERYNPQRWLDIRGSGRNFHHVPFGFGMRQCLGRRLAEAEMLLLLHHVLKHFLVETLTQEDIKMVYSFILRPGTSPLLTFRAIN
method-notes: cellular aldosterone production in NCI-H295R cells (aldosterone synthase inhibition)
experimental-readout: IC50 (nM)

Illustrative cases are given below, each with its answer.
> print(dat)
                                smiles.text  unit.abbrev  recorded.number
1  Cn1c([C@@]2(O)C[C@H](c3ccc(C#N)cc3F)n3cncc32)cc2ccccc21           nM                7
2  N#Cc1ccc([C@H]2CC[C@](O)(c3ccc(-c4ccccc4)cc3)c3cncn32)cc1           nM               72
3  COc1cc(-c2cccc([C@@]3(O)C[C@H](c4ccc(C#N)cc4F)n4cncc43)c2)ccn1           nM                6

[P] C=C[C@@]1(O)C[C@H](c2ccc(C#N)cc2F)n2cncc21
[Q] CC1(C)[C@H](c2ccc(C#N)cc2F)n2cncc2[C@@]1(O)c1ccc(F)cc1
[R] N#Cc1ccc([C@H]2C[C@](O)(c3cccc(C4CC4)c3)c3cncn32)c(F)c1
[S] Cc1ccc([C@@]2(O)C[C@H](c3ccc(C#N)cc3F)n3cncc32)cc1C
[T] N#Cc1ccc([C@H]2C[C@](O)(C#CC3CC3)c3cncn32)c(F)c1
Input line: Order these by IC50, descending, and give the full ranking. // respond by listing labels in the order requested
Output line: T, Q, R, P, S
(T: 142 nM, Q: 42 nM, R: 27 nM, P: 11 nM, S: 5 nM)

###

assay-system: CYP11B1 (Homo sapiens)
Construct: the NCI-H295R cells have CYP11 B1 (steroid 11 β-hydroxylase); host or cells: NCI-H295R
method-notes: cellular cortisol production in NCI-H295R cells (CYP11B1 inhibition)
Format: cell-based
pIC50: −log10 of the molar value.
experimental-readout: pIC50

[A] N#Cc1ccc([C@H]2C[C@](O)(c3ccc4c(c3)OCO4)c3cncn32)c(F)c1
[B] Cc1ccc([C@@]2(O)C[C@H](c3ccc(C#N)cc3F)n3cncc32)cc1C
Input line: I would appreciate it if you could say which entry, A or B , has the lower pIC50 value. Your answer should be the label attached to the chosen record.
Output line: B
(B: 6.32, A: 6.99)

[A] N#Cc1ccc([C@H]2C[C@](O)(CC(=O)Nc3cccc(OC(F)(F)F)c3)c3cncn32)c(F)c1
[B] COc1cc(-c2cccc([C@@]3(O)C[C@H](c4ccc(C#N)cc4F)n4cncc43)c2)ccn1
Input line: Response body: label of entry with the larger pIC50; valid values A , B . Your answer should be the label attached to the chosen record.
Output line: B
(B: 6.47, A: 5.06)

###

assay-system: aldosterone synthase (CYP11B2) (Homo sapiens, UniProt P19099)
Sequence (P19099 25-503): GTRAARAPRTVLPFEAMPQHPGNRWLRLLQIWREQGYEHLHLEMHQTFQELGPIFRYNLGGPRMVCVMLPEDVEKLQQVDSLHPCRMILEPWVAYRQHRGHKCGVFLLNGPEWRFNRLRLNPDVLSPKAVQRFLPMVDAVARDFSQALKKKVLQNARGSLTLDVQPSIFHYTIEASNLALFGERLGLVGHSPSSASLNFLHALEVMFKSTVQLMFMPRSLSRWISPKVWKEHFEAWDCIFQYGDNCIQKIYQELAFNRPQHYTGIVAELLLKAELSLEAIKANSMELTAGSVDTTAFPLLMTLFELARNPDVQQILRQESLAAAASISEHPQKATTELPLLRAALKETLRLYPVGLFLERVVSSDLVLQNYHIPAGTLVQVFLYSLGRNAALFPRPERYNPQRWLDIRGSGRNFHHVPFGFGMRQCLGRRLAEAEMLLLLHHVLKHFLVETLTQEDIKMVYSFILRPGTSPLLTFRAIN
method-notes: cellular aldosterone production in NCI-H295R cells (aldosterone synthase inhibition)
pIC50: −log10 of the molar value.
experimental-readout: pIC50

Illustrative cases are given below, each with its answer.
> print(dat)
                                smiles.text  recorded.number
1  N#Cc1ccc([C@H]2C[C@](O)(CCc3ccccc3)c3cncn32)c(F)c1             8.70
2  N#Cc1ccc([C@H]2C[C@](O)(c3ccc4c(c3)OCO4)c3cncn32)c(F)c1             7.47

[1] N#Cc1ccc([C@H]2C[C@](O)(CC(=O)Nc3cccc(OC(F)(F)F)c3)c3cncn32)c(F)c1
[2] N#Cc1ccc([C@H]2C[C@](O)(c3cccc(-c4ccc(F)cc4)c3)c3cncn32)c(F)c1
[3] N#Cc1ccc([C@H]2C[C@@](O)(c3ccc4ccccc4c3)c3cncn32)c(F)c1
Input line: Would you mind ranking these molecules by ascending pIC50? // respond by listing labels in the order requested
Output line: 1, 2, 3
(1: 7.14, 2: 7.60, 3: 9.00)

[P] CCc1ccc([C@@]2(O)C[C@H](c3ccc(C#N)cc3F)n3cncc32)cc1
[Q] Cc1cc(-c2ccc([C@@]3(O)C[C@H](c4ccc(C#N)cc4F)n4cncc43)cc2)ccn1
[R] N#Cc1ccc([C@H]2C[C@](O)(c3ccc4ccccc4c3)c3cncn32)c(F)c1
Input line: Would you mind ranking these molecules by ascending pIC50? // respond by listing labels in the order requested
Output line: Q, P, R
(Q: 7.19, P: 8.22, R: 8.70)

###

assay-system: CYP11B1 (Homo sapiens)
Construct: the NCI-H295R cells have CYP11 B1 (steroid 11 β-hydroxylase)
Sequence (P15538 25-503): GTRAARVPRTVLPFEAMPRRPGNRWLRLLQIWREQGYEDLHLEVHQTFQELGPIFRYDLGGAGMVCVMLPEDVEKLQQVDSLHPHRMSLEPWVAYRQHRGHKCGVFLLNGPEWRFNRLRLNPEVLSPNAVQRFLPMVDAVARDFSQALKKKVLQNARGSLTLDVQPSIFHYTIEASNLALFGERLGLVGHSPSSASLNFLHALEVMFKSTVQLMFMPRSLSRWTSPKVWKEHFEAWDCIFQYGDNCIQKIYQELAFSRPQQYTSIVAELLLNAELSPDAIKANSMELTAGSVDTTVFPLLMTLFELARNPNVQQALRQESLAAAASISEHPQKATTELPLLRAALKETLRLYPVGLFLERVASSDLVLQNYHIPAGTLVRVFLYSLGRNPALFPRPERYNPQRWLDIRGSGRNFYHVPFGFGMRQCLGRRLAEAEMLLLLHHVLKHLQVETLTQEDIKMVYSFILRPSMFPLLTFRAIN
method-notes: cellular cortisol production in NCI-H295R cells (CYP11B1 inhibition)
pIC50: −log10 of the molar value.
experimental-readout: pIC50

> print(dat)
                                smiles.text            assay.system  experimental.readout  recorded.number
1  N#Cc1ccc([C@H]2CC[C@](O)(c3ccc(-c4ccccc4)cc3)c3cncn32)cc1  CYP11B1 (Homo sapiens)                 pIC50             6.87

[P] N#Cc1ccc([C@H]2C[C@](O)(c3ccc4ccccc4c3)c3cncn32)c(F)c1
[Q] N#Cc1ccc([C@H]2C[C@](O)(CCc3ccccc3)c3cncn32)c(F)c1
[R] N#Cc1ccc([C@H]2C[C@](O)(c3cccc(C4CC4)c3)c3cncn32)c(F)c1
Input line: Order these by pIC50, descending, and give the full ranking. // respond by listing labels in the order requested
Output line: Q, R, P
(Q: 8.22, R: 7.08, P: 6.84)
